Reference source for all entries: patent US8338471B2

Molecular target: recombinant human MMP-12 (Homo sapiens, UniProt P39900)
Sequence (P39900 106-470): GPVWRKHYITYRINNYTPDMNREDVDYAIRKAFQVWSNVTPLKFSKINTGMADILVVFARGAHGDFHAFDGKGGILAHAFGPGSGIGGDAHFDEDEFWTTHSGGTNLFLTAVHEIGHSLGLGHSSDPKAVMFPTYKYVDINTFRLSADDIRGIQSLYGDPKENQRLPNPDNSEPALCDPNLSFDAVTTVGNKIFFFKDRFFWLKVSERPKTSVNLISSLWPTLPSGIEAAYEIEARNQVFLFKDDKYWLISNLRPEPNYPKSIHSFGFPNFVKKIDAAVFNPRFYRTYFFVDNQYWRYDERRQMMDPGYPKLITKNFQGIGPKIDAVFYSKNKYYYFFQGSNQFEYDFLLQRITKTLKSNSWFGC
Assay: MMP-12 enzyme assay (FRET substrate)
Protocol: A typical MMP-12 enzyme assay employs recombinant human MMP-12 catalytic domain expressed and purified as described by Parkar A. A. et al, (2000), Protein Expression and Purification, 20:152. […] Activity is determined by measuring the fluorescence at λex 320 nm and λem 405 nm. Percent inhibition is calculated as follows: % Inhibition is equal to the (Fluorescenceplus inhibitor−Fluorescencebackground); divided by the (Fluorescenceminus inhibitor−Fluorescencebackground); […]
The entries below come with measured Ki values attached.

1. CC(C)[C@H](C(=O)NO)N1C(=O)N[C@@H](CCc2ccc(Cc3ccccc3)cc2)C1=O :: ≤ 50 nM
2. Cc1ccccc1CCC1NC(=O)N(C(C(=O)NO)C(C)C)C1=O (centres unmarked) :: ≤ 50 nM
3. CC(C)[C@H](C(=O)NO)N1C(=O)N[C@@H](CCCCNC(=O)c2ccccc2)C1=O [Example 25h] :: > 200 nM

Requested read-out: Ki. Entry: "CC(C)[C@H](C(=O)NO)N1C(=O)N[C@@H](COCc2cccc(F)c2)C1=O" 51 to 200 nM

Requested read-out: Ki. Entry: "CC(C)[C@H](C(=O)NO)N1C(=O)N[C@@H](CCc2ccc(F)cc2)C1=O" ≤ 50 nM

====

Target: recombinant human MMP-12 (Homo sapiens, UniProt P39900)
Assay: MMP-12 enzyme assay (FRET substrate)
The entries below come with measured Ki values attached.

Known results for molecules:
1. COc1ccc(CC[C@@H]2NC(=O)N([C@@H](C(=O)NO)C(C)C)C2=O)cc1 :: ≤ 50 nM
2. CC(C)[C@H](C(=O)NO)N1C(=O)N[C@H](CCc2ccccc2)C1=O :: 51 to 200 nM
3. O=C(NO)[C@@H](Cc1ccccc1)N1C(=O)N[C@@H](CCc2ccccc2)C1=O :: ≤ 50 nM

Please examine the following record next.
Requested read-out: Ki. Entry: "CC(C)[C@H](C(=O)NO)N1C(=O)N[C@@H](COCc2ccc(C(F)(F)F)cc2)C1=O" ≤ 50 nM

====

Target: recombinant human TACE (Homo sapiens)
Construct: purchased R&D Systems
Sequence (P78536 215-824): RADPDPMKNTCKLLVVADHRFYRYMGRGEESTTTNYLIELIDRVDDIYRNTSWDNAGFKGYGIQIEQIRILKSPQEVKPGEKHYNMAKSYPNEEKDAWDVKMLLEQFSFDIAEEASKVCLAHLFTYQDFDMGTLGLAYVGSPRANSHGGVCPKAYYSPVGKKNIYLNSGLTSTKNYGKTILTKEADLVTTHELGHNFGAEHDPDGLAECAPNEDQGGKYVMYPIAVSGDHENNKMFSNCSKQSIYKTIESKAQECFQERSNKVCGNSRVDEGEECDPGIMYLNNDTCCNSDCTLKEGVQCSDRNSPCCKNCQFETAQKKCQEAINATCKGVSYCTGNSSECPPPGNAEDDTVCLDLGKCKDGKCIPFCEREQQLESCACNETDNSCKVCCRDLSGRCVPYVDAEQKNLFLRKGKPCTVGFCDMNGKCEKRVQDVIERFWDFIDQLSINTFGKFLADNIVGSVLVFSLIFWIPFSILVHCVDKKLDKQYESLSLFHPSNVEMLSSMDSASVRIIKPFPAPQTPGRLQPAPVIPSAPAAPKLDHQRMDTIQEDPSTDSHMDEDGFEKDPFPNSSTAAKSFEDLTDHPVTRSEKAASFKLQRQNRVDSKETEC
Assay: TACE enzyme assay (FRET substrate), selectivity versus MMP-12
Type: biochemical
Settings: fold difference in Ki for TACE compared to MMP-12
readout.name: Ki(TACE)/Ki(MMP-12)

1. CC(C)[C@H](C(=O)NO)N1C(=O)N[C@@H](COCc2ccc(Br)cc2)C1=O (stereo in doubt) [Example 13i] :: >190
2. CC(C)[C@H](C(=O)NO)N1C(=O)N[C@H](CCc2ccccc2)C1=O :: >80

Please examine the following record next.
Hi! What's the reported Ki(TACE)/Ki(MMP-12) for "CC(C)[C@H](C(=O)NO)N1C(=O)N[C@@H](COCc2ccc(C(F)(F)F)cc2)C1=O" on recombinant human TACE (Homo sapiens)? >500
